Data provenance: ChEMBL document CHEMBL5247680

# Tested on: Staphylococcus aureus
# assay procedure: Antibacterial activity against Staphylococcus aureus ATCC 25923 assessed as bacterial growth inhibition incubated for 20 to 24 hrs by microbroth serial dilution assay
# Type: functional
# conditions: time 20-24 hrs
measured metric: MIC (µg/mL)
One number for each entry, in µg/mL.

Known MIC results, listed for orientation:
C=C[C@]1(C)C[C@@H](OC(=O)CSc2nc(N)nc3c2ncn3C(=O)c2ccc(OC)cc2)[C@@]2(C)C3C(=O)CC[C@@]3(CC[C@H]2C)[C@@H](C)[C@@H]1O (stereo not given in full); 0.25
C=C[C@]1(C)C[C@@H](OC(=O)CSc2nc(N)nc3c2ncn3C(=O)Nc2cccc(F)c2)[C@@]2(C)C3C(=O)CC[C@@]3(CC[C@H]2C)[C@@H](C)[C@@H]1O (stereo not given in full); 0.25
C=C[C@]1(C)C[C@@H](OC(=O)CSc2nc(N)nc3c2ncn3C(=O)Nc2ccccc2Cl)[C@@]2(C)C3C(=O)CC[C@@]3(CC[C@H]2C)[C@@H](C)[C@@H]1O (stereo not given in full); 0.125

Please report MIC for every entry that follows.
1. C=C[C@]1(C)C[C@@H](OC(=O)CSCCN(CC)CC)[C@]2(C)[C@H](C)CC[C@]3(CCC(=O)[C@H]32)[C@@H](C)[C@@H]1O
2. C=C[C@]1(C)C[C@@H](OC(=O)CSc2nc(N)nc3c2ncn3C(=O)NCc2ccccc2)[C@@]2(C)C3C(=O)CC[C@@]3(CC[C@H]2C)[C@@H](C)[C@@H]1O (stereo not given in full)

Response given:
2
0.0312

---

# Tested on: Staphylococcus epidermidis
# assay procedure: Antibacterial activity against Methicillin-resistant Staphylococcus epidermidis ATCC 51625 assessed as bacterial growth inhibition incubated for 20 to 24 hrs by microbroth serial dilution assay
# Format: functional
# conditions: time 20-24 hrs
Decide using MIC alone. Strictly below 0.1 µg/mL: label 1. Equal to or above 0.1 µg/mL: label 0.

Use the examples below as a reference point.
C=C[C@]1(C)C[C@@H](OC(=O)CSc2nc(N)nc3c2ncn3C(=O)c2ccc([N+](=O)[O-])cc2)[C@@]2(C)C3C(=O)CC[C@@]3(CC[C@H]2C)[C@@H](C)[C@@H]1O (some centres undefined); label 1
C=C[C@]1(C)C[C@@H](OC(=O)CSc2nc(NC(=O)CN3CCC(O)CC3)nc3[nH]cnc23)[C@@]2(C)C3C(=O)CC[C@@]3(CC[C@H]2C)[C@@H](C)[C@@H]1O (some centres undefined); label 0
C=C[C@]1(C)C[C@@H](OC(=O)CSc2nc(NC(=O)CN3CCOCC3)nc3[nH]cnc23)[C@@]2(C)C3C(=O)CC[C@@]3(CC[C@H]2C)[C@@H](C)[C@@H]1O (some centres undefined); label 0

Challenge: # check: MIC < 0.1 µg/mL for C=C[C@]1(C)C[C@@H](OC(=O)CSc2nc(NC(=O)CN3CCCC3)nc3[nH]cnc23)[C@@]2(C)C3C(=O)CC[C@@]3(CC[C@H]2C)[C@@H](C)[C@@H]1O (some centres undefined)
Response given: label 0

Challenge: # check: MIC < 0.1 µg/mL for C=C[C@]1(C)C[C@@H](OC(=O)CSc2nc(N)nc3c2ncn3C(=O)OCC)[C@@]2(C)C3C(=O)CC[C@@]3(CC[C@H]2C)[C@@H](C)[C@@H]1O (some centres undefined)
Response given: label 0

Challenge: # check: MIC < 0.1 µg/mL for C=C[C@]1(C)C[C@@H](OC(=O)CSc2nc(N)nc3c2ncn3C(=O)Nc2cccc(C(F)(F)F)c2)[C@@]2(C)C3C(=O)CC[C@@]3(CC[C@H]2C)[C@@H](C)[C@@H]1O (some centres undefined)
Response given: label 0
